MIC by entry:
Test system: Enterococcus faecalis
Assay summary: Antimicrobial activity against vancomycin-resistant Enterococcus faecalis ATCC 51575 by CLSI method
Assay type: functional
Study conditions: Enterococcus faecalis, ATCC 51575; read-out: MIC
Numeric answer only, unit µg/mL assumed.

# count of solved cases: 5
In [3]: df
Out[3]:
                                   molecule  result_value
0  c1cc2cc(-c3ccc(-c4cc5ccc(C6=NCCN6)cc5o4)cc3)[nH]c2cc1C1=NCCN1          0.16
1  c1cc2cc(-c3ccc(-c4nc5ccc(C6=NCCCN6)cc5[nH]4)cc3)[nH]c2cc1C1=NCCCN1          0.31
2  Cc1c(-c2ccc(-c3cc4ccc(C5=NCCCN5)cc4o3)cc2)[nH]c2cc(C3=NCCCN3)ccc12          0.16
3  CC1CNC(c2ccc3cc(-c4ccc(-c5ccc(N(C)C)cc5)cc4)[nH]c3c2)=N1 (stereo not drawn)           3.3
4  c1cc2cc(-c3ccc(-c4cc5ccc(C6=NCCCN6)cc5s4)cc3)[nH]c2cc1C1=NCCCN1          0.31

Supply reported MIC belonging to this molecule: OC1CN=C(c2ccc3cc(-c4ccc(-c5cc6ccc(C7=NCC(O)CN7)cc6o5)s4)[nH]c3c2)NC1 (stereo not drawn)
2.5

Supply reported MIC belonging to this molecule: `Cc1c(-c2ccc(-c3cc4ccc(C5=NCCCN5)cc4o3)cc2)[nH]c2cccc(C#N)c12`
5

Supply reported MIC belonging to this molecule: CC1CNC(c2ccc3cc(-c4ccc(-c5cc6ccc(C7=NC(C)CN7)cc6o5)s4)[nH]c3c2)=N1 (stereo not drawn)
0.63

Supply reported MIC belonging to this molecule: CC1CN=C(c2ccc3cc(-c4ccc(-c5cc6ccc(C7=NCC(C)CN7)cc6o5)cn4)[nH]c3c2)NC1 (stereo not drawn)
0.63

Supply reported MIC belonging to this molecule: `c1cc2cc(-c3ccc(-c4cc5ccc(C6=NCCCN6)cc5o4)cn3)[nH]c2cc1C1=NCCCN1`
0.39

Supply reported MIC belonging to this molecule: `c1cc2cc(-c3ccc(-c4cnc(N5CCOCC5)nc4)cc3)[nH]c2cc1C1=NCCCN1`
3.75

Supply reported MIC belonging to this molecule: `c1cc2cc(-c3ccc(-c4cc5ccc(C6=NCCCN6)cc5o4)s3)[nH]c2cc1C1=NCCCN1`
0.31

Supply reported MIC belonging to this molecule: OC1CN=C(c2ccc3cc(-c4ccc(-c5cc6ccc(C7=NCC(O)CN7)cc6o5)cn4)[nH]c3c2)NC1 (stereo not drawn)
5

Supply reported MIC belonging to this molecule: `c1cc2cc(-c3ccc(-c4cn5cc(C6=NCCCN6)ccc5n4)cc3)[nH]c2cc1C1=NCCCN1`
0.63

Supply reported MIC belonging to this molecule: `c1cc2cc(-c3ccc(-c4cn5cc(C6=NCCN6)ccc5n4)cc3)[nH]c2cc1C1=NCCN1`
20

* * *

System: Bacillus anthracis
Assay summary: Antimicrobial activity against Bacillus anthracis Sterne by CLSI method
Type: functional
Study conditions: Bacillus anthracis, Sterne; read-out: MIC
MIC by entry:
Numeric answer only, unit µg/mL assumed.

# count of solved cases: 5
In [3]: df
Out[3]:
                                   compound  result_value
0  Fc1cc(-c2cc3ccc(C4=NCCCN4)cc3[nH]2)ccc1-c1cc2ccc(C3=NCCCN3)cc2o1          0.08
1  c1cc2cc(-c3ccc(-c4cn5ccc(C6=NCCCN6)cc5n4)cc3)[nH]c2cc1C1=NCCCN1          1.25
2  FC1CN=C(c2ccc3cc(-c4ccc(-c5cc6ccc(C7=NCC(F)CN7)cc6o5)cc4)[nH]c3c2)NC1 (configuration not stated)          0.31
3  c1cc2oc(-c3ccc(-c4cc5ccc(C6=NCCCN6)cc5[nH]4)cc3)cc2cc1C1=NCCCN1          0.08
4  c1cc2cc(-c3ccc(-c4cn5cc(C6=NCCN6)ccc5n4)cc3)[nH]c2cc1C1=NCCN1            40

Next up:
Supply reported MIC belonging to this compound: `Cc1c(-c2ccc(-c3cc4ccc(C5=NCCCN5)cc4o3)cc2)[nH]c2cc(C3=NCCCN3)ccc12`
0.08

* * *

MIC by entry:
Test system: Enterococcus faecalis
Assay summary: Antimicrobial activity against vancomycin-resistant Enterococcus faecalis ATCC 51575 by CLSI method
Format: functional
Study conditions: Enterococcus faecalis, ATCC 51575; read-out: MIC

# count of solved cases: 2
In [3]: df
Out[3]:
                                   molecule  attribute_measured  result_value
0  c1cc2cc(-c3ccc(-c4cn5ccc(C6=NCCN6)cc5n4)cc3)[nH]c2cc1C1=NCCN1                 MIC    > 80 µg/mL
1  CC1CNC(c2ccc3cc(-c4ccc(-c5cnc(N6CCCC6)nc5)cc4)[nH]c3c2)=N1 (stereo not drawn)                 MIC    > 80 µg/mL

Next up:
Supply reported MIC belonging to this molecule: CC1CNC(c2ccc3cc(-c4ccc(-c5cnc(N6CCOCC6)nc5)cc4)[nH]c3c2)=N1 (stereo not drawn)
> 80 µg/mL
